molecular target: PI3Kα H1047R (T47D cells) (Homo sapiens, UniProt P42336, H1047R); construct: endogenous in cells; host or cells: T47D cells; assay: PI3Kα cellular assay: pAKT HTRF in T47D cells after EGF stimulation; format: cell-based; details: T47D cells (PI3Kα H1047R), pAKT S473 HTRF, 1 hr compound, 20 ng/ml EGF 10 min
Sequence (P42336 whole entry H1047R): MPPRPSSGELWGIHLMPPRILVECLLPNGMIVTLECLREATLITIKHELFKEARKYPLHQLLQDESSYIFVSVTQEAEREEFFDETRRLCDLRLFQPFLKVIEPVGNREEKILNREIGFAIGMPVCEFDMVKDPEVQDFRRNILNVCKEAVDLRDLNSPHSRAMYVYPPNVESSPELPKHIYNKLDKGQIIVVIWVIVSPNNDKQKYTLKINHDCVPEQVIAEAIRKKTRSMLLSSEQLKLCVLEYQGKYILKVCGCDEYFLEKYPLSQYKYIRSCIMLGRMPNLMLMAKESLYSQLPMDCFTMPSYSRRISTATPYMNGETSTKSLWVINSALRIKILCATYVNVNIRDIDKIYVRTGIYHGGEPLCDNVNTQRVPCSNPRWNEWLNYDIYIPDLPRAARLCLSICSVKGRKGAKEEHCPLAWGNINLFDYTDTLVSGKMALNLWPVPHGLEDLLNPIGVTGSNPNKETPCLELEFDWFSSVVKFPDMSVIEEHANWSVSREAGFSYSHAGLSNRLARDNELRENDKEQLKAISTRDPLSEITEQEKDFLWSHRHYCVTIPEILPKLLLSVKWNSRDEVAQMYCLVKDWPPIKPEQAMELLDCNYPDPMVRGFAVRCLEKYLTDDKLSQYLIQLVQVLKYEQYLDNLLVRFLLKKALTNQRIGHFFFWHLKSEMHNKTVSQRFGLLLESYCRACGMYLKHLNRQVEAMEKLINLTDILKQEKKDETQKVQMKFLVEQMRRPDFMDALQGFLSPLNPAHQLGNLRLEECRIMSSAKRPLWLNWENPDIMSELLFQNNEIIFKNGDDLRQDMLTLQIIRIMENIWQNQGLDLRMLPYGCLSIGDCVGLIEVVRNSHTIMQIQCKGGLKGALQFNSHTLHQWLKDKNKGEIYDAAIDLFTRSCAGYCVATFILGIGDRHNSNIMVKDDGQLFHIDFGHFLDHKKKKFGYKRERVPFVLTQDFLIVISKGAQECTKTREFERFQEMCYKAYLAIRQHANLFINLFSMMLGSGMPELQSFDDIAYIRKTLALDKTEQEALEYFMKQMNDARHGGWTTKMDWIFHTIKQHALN
Sequence (P27986 whole entry partner): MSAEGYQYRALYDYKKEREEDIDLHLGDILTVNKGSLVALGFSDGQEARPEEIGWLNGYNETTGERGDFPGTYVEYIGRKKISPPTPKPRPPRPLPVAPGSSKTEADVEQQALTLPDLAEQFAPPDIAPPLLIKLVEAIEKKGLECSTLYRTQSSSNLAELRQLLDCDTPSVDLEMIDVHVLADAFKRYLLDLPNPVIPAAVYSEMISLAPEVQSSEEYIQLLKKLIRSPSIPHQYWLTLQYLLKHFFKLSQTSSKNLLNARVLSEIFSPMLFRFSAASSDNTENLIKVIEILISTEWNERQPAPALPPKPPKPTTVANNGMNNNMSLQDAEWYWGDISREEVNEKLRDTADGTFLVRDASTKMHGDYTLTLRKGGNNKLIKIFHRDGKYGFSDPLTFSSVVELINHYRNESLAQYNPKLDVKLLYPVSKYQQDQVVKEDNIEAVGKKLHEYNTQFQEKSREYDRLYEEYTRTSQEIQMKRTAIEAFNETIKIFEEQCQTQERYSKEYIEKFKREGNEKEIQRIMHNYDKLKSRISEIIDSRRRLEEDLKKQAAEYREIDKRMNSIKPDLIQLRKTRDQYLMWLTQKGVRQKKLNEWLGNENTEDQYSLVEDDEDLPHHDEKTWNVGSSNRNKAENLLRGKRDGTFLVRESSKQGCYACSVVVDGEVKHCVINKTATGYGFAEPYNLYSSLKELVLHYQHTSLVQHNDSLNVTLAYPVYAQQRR
pIC50: −log10 of the molar value. Where a name gives a salt, the structure may show the parent alone.
For each of the molecules below, state its pIC50.

# molecule, pIC50
rows = [
    ("CC(=O)N1CCCC(c2cc(=O)n3cc(C)cc(C(C)Nc4ccccc4C(=O)O)c3n2)CC1 (stereo not drawn)", "< 5.70"),
    ("Cc1cc([C@H](C)Nc2ccccc2C(=O)O)c2nc(N3C[C@@H](C)O[C@@H](C)C3)cc(=O)n2c1", "< 5.70"),
    ("Cc1cc(C(C)Nc2ccccc2C(=O)O)c2nc(-c3cc[nH]c(=O)c3)cc(=O)n2c1 (stereo not drawn)", "< 5.70"),
    ("Cc1cc(C(C)Nc2ccccc2C(=O)O)c2nc(N3CCN(CCC(N)=O)CC3)cc(=O)n2c1 (stereo not drawn) [Compound 551]", "< 5.70"),
    ("Cc1cc([C@H](C)Nc2ccccc2C(=O)O)c2nc(-c3ccc4[nH]c(=O)oc4c3)cc(=O)n2c1", "< 5.70"),
    ("Cc1cc(C(C)Nc2ccccc2C(=O)O)c2nc(-c3cccnc3)cc(=O)n2c1 (stereo not drawn) [Compound 416, trifluoroacetate]", "6.30 to 7.00"),
]

Please give pIC50, item by item, for the list that follows.
1. Cc1cc([C@H](C)Nc2ccccc2C(=O)O)c2nc(-c3cc(C)c4[nH]c(=O)[nH]c4c3)cc(=O)n2c1
2. Cc1cc([C@H](C)N(C)c2ccccc2C(=O)O)c2nc(N3CCOCC3)cc(=O)n2c1
3. Cc1cc(C(C)Nc2ccccc2C(=O)O)c2nc(N3C[C@@H](C)O[C@@H](C)C3)cc(=O)n2c1 (stereo partly drawn)
4. Cc1cc([C@@H](C)Nc2ccccc2C(=O)O)c2nc(N3CCOC[C@H]3C)cc(=O)n2c1
5. Cc1cc([C@H](C)Nc2ccccc2C(=O)O)c2nc(C3CCN(C(=O)C4(N)CC4)CC3)cc(=O)n2c1
6. Cc1cc([C@H](C)Nc2ccccc2C(=O)O)c2cc(-c3ccnnc3)cc(=O)n2c1
7. Cc1cc(C(C)Nc2ccccc2C(=O)O)c2nc(N3CCO[C@H](C)C3)cc(=O)n2c1 (stereo partly drawn)
8. Cc1cc(C(C)Nc2ccccc2S(N)(=O)=O)c2nc(-c3ccc(F)cc3)cc(=O)n2c1 (stereo not drawn) [Compound 585]

["< 5.70", "< 5.70", "5.70 to 6.30", "< 5.70", "< 5.70", "< 5.70", "6.30 to 7.00", "< 5.70"]

# CC(=O)N1CCC(c2cc(=O)n3cc(C)cc([C@H](C)Nc4ccccc4C(=O)O)c3n2)CC1 with PI3Kα H1047R (T47D cells) (Homo sapiens, UniProt P42336, H1047R): pIC50 is 5.70 to 6.30

====

For each of the compounds below, state its pIC50.
target: PI3Kα H1047R (T47D cells) (Homo sapiens, UniProt P42336, H1047R); construct: endogenous in cells; host or cells: T47D cells; assay: PI3Kα cellular assay: pAKT HTRF in T47D cells after EGF stimulation; type: cell-based; settings: T47D cells (PI3Kα H1047R), pAKT S473 HTRF, 1 hr compound, 20 ng/ml EGF 10 min
pIC50: −log10 of the molar value.

Observe how each entry below is paired with its result.
# compound, tested_target, result_value
data = [
    ("Cc1cc(C(C)Nc2ccccc2S(N)(=O)=O)c2nc(-c3ccc(F)cc3)cc(=O)n2c1 (stereo not shown) [Compound 586]", "PI3Kα H1047R (T47D cells) (Homo sapiens, UniProt P42336, H1047R)", "< 5.70"),
    ("Cc1cc([C@@H](C)Nc2ccccc2C(=O)O)c2nc(C3CCOCC3)cc(=O)n2c1 [Compound 316]", "PI3Kα H1047R (T47D cells) (Homo sapiens, UniProt P42336, H1047R)", "< 5.70"),
    ("Cc1cc([C@@H](C)Oc2ccc(F)cc2C(=O)O)c2nc(N3CCOCC3)cc(=O)n2c1 [Compound 332]", "PI3Kα H1047R (T47D cells) (Homo sapiens, UniProt P42336, H1047R)", "< 5.70"),
    ("Cc1cc(C(C)Nc2ccccc2C(=O)O)c2nc(-c3ccncc3)cc(=O)n2c1 (stereo not shown) [Compound 267]", "PI3Kα H1047R (T47D cells) (Homo sapiens, UniProt P42336, H1047R)", "6.30 to 7.00"),
    ("Cc1cc([C@@H](C)Nc2ccccc2-n2nn[nH]c2=O)c2nc(N3CCOCC3)cc(=O)n2c1 [Compound 343]", "PI3Kα H1047R (T47D cells) (Homo sapiens, UniProt P42336, H1047R)", "< 5.70"),
    ("Cc1cc([C@@H](C)Nc2ccccc2C(=O)O)c2nc(N3CCC(C)CC3)cc(=O)n2c1 [Compound 359]", "PI3Kα H1047R (T47D cells) (Homo sapiens, UniProt P42336, H1047R)", "> 7.00"),
    ("Cc1cc(C(C)Nc2ccccc2C(=O)O)c2nc(N3CCSCC3)cc(=O)n2c1 (stereo not shown) [Compound 140]", "PI3Kα H1047R (T47D cells) (Homo sapiens, UniProt P42336, H1047R)", "6.30 to 7.00"),
    ("Cc1cc([C@H](C)Nc2ccccc2C(=O)O)c2nc(-c3ccc4c(c3)NC(=O)C4)cc(=O)n2c1 [Compound 576]", "PI3Kα H1047R (T47D cells) (Homo sapiens, UniProt P42336, H1047R)", "< 5.70"),
    ("Cc1cc([C@H](C)Nc2ccccc2S(N)(=O)=O)c2nc(-c3ccc(F)cc3)cc(=O)n2c1 [Compound 587]", "PI3Kα H1047R (T47D cells) (Homo sapiens, UniProt P42336, H1047R)", "< 5.70"),
    ("CC(=O)N1CCC(c2cc(=O)n3cc(C)cc([C@@H](C)Nc4ccccc4C(=O)O)c3n2)CC1 [Compound 522]", "PI3Kα H1047R (T47D cells) (Homo sapiens, UniProt P42336, H1047R)", "< 5.70"),
]

Please give pIC50, item by item, for the list that follows.
1. Cc1cc([C@H](C)Nc2ccccc2S(N)(=O)=O)c2nc(N3CCOCC3)cc(=O)n2c1 [Compound 152]
2. Cc1cc([C@@H](C)Nc2ccccc2C(=O)O)c2nc(-c3ccccc3)cc(=O)n2c1 [Compound 628]
3. Cc1cc([C@H](C)Nc2ccccc2CC(=O)O)c2nc(N3CCSCC3)cc(=O)n2c1 [Compound 286]
4. Cc1cc(C(C)Nc2cnncc2C(=O)O)c2nc(N3CCOCC3)cc(=O)n2c1 (stereo not shown) [Compound 357]

["5.70 to 6.30", "< 5.70", "< 5.70", "< 5.70"]

Please give pIC50, item by item, for the list that follows.
1. Cc1cc([C@H](C)Nc2ccccc2C(=O)O)c2nc(N3Cc4ccccc4C3)cc(=O)n2c1 [Compound 403]
2. Cc1cc([C@@H](C)Nc2ccccc2CC(=O)O)c2nc(N3CCOCC3)cc(=O)n2c1 [Compound 157]

< 5.70
< 5.70

====

For each of the compounds below, state its pIC50.
Molecular target: PI3Kα H1047R (T47D cells) (Homo sapiens, UniProt P42336, H1047R)
Construct: endogenous in cells; host or cells: T47D cells
Assay: PI3Kα cellular assay: pAKT HTRF in T47D cells after EGF stimulation
Format: cell-based
Details: T47D cells (PI3Kα H1047R), pAKT S473 HTRF, 1 hr compound, 20 ng/ml EGF 10 min
Protocol: SKBR3 or T47D cells are seeded in DMEM containing 10% FBS at 25k cells/well into 96-well cell culture format. […] 384 well plate is left overnight at room temperature before reading HTRF on an Envision plate reader. ND denotes value not determined with that assay for the specified compound; • for T47D (H1047R) selectivity over SKBR3 (WT): A denotes >20-fold; B denotes 20-fold≥value>5-fold; C denotes ≤5-fold. […] ND denotes value not determined with that assay for the specified compound.
pIC50: −log10 of the molar value.

Observe how each entry below is paired with its result.
# compound, tested_target, attribute_measured, result_value
data = [
    ("Cc1cc([C@@H](C)Nc2c(C(=O)O)cnn2C)c2nc(N3CCOCC3)cc(=O)n2c1 [Compound 390]", "PI3Kα H1047R (T47D cells) (Homo sapiens, UniProt P42336, H1047R)", "pIC50", "< 5.70"),
    ("Cc1cc([C@@H](C)Nc2ccccc2C(=O)O)c2nc(-c3ccc4c(c3)NC(=O)C4)cc(=O)n2c1 [Compound 575]", "PI3Kα H1047R (T47D cells) (Homo sapiens, UniProt P42336, H1047R)", "pIC50", "6.30 to 7.00"),
    ("CC(=O)Oc1nc2ccc(-c3cc(=O)n4cc(C)cc([C@H](C)Nc5ccccc5C(=O)O)c4n3)cn2n1 [Compound 518]", "PI3Kα H1047R (T47D cells) (Homo sapiens, UniProt P42336, H1047R)", "pIC50", "< 5.70"),
]

Please give pIC50, item by item, for the list that follows.
1. Cc1cc(C(C)Nc2cc(C(F)(F)F)ccc2C(=O)O)c2nc(N3CCOCC3)c(C)c(=O)n2c1 (stereo not drawn) [Compound 328]
2. Cc1cc(C(C)Nc2ccccc2-c2ccnnc2)c2nc(N3CCOCC3)cc(=O)n2c1 (stereo not drawn) [Compound 494]
3. Cc1cc([C@H](C)Nc2ccccc2C(=O)O)c2nc(N3CCOC[C@H]3C)cc(=O)n2c1 [Compound 297]
4. Cc1cc([C@H](C)Nc2ccccc2C(=O)O)c2nc(-c3ccc4nc(CO)[nH]c4c3)cc(=O)n2c1 [Compound 489]

1: < 5.70; 2: < 5.70; 3: 6.30 to 7.00; 4: < 5.70

Please give pIC50, item by item, for the list that follows.
1. Cc1cc(C(C)Nc2ccccc2C(=O)O)c2nc(-c3ccc4[nH]c(=O)[nH]c4c3)cc(=O)n2c1 (stereo not drawn) [Compound 514]
2. Cc1cc([C@H](C)Nc2ccccc2S(N)(=O)=O)c2nc(N3Cc4ccccc4C3)cc(=O)n2c1 (single isomer, unassigned) [Compound 606]

1: 5.70 to 6.30; 2: < 5.70

Please give pIC50, item by item, for the list that follows.
1. CCc1cc([C@@H](C)Nc2ccccc2C(=O)O)c2nc(N3CCOCC3)cc(=O)n2c1 [Compound 149]
2. Cc1cc(C(C)Nc2ccccc2C(=O)O)c2nc(-c3ccc4c(c3)c(N(C)C)nn4C)cc(=O)n2c1 (stereo not drawn) [Compound 457]

< 5.70
> 7.00

Please give pIC50, item by item, for the list that follows.
1. Cc1cc(C(C)Nc2ccccc2C(=O)O)c2nc(N3CCC4(CC3)COC4)cc(=O)n2c1 (stereo not drawn) [Compound 471]
2. Cc1cc([C@H](C)Nc2ccccc2C(=O)O)c2nc(-c3cc[nH]c(=O)c3)cc(=O)n2c1 [Compound 462]
3. CCc1cc(C(=O)NOC)ccc1-c1cc(=O)n2cc(C)cc([C@@H](C)Nc3ccccc3C(=O)O)c2n1 [Compound 503]
4. Cc1cc([C@H](C)Nc2ccccc2)c2nc(-c3cc(C)c4oc(=O)[nH]c4c3)cc(=O)n2c1 [Compound 252]

1. 5.70 to 6.30
2. < 5.70
3. < 5.70
4. < 5.70
